test-details: Cytotoxicity against human MCF-10A cells assessed as cell growth inhibition incubated for 72 hrs by MTT assay
Format: toxicity, cell-based
Some molecules, each annotated with its measured log10 GI50 at 72 h.
Could you please treat all values as log10 of GI50 at 72 h in µM?

Please review the following examples before continuing.
// log10 GI50 at 72 h lookup, key: O=C1NC(c2ccc([N+](=O)[O-])cc2)Nc2ccccc21 (stereo unspecified)
1.04

What measured log10 GI50 at 72 h goes with O=C1NC(c2cccc(O)c2)Nc2ccccc21 (stereo unspecified) ?
1.15

What does the record list as log10 GI50 at 72 h for O=C1NC(c2cccc([N+](=O)[O-])c2)Nc2ccccc21 (stereo unspecified) ?
1.32

State the recorded log10 GI50 at 72 h for this entry: O=C1NC(c2cc3ccccc3o2)Nc2ccccc21 (stereo unspecified)
0.59

Which value of log10 GI50 at 72 h has been reported for O=C1NC(C2CC=CCC2)Nc2ccccc21 (stereo unspecified) in the records?
1.04

For the molecule shown here, O=c1[nH]c(/C=C/c2ccccc2)nc2ccccc12 , give the reported log10 GI50 at 72 h.
0.36

Turning now to a further molecule:
Given COc1cccc(/C=C/c2nc3ccccc3c(=O)[nH]2)c1 , state its recorded log10 GI50 at 72 h.
0.34

---

test-details: Cytotoxicity against human MCF-10A cells assessed as cell growth inhibition at 25 uM incubated for 72 hrs by MTT assay relative to control
Assay type: toxicity, cell-based
quantity-measured: inhibition at 72 h, 25 µM (%)
Field format: number, assumed %, no unit text.

Data request, read-out inhibition at 72 h, 25 µM, for O=C1NC(c2cccs2)Nc2ccccc21 (stereo not drawn)
84

---

Test system: HT-29
test-details: Antiproliferative activity against human HT-29 cells assessed as cell growth inhibition incubated for 72 hrs by MTT assay
Format: functional
GI50 overview
Write it as a number; the unit µM goes unstated.

Example entries and their recorded answers appear below.
So what does the record say about GI50 for O=C1NC(c2cc3ccccc3o2)Nc2ccccc21 (configuration not stated) ?
2.6

Requested read-out: GI50. Entry: O=C1NC(c2ccc([N+](=O)[O-])cc2)Nc2ccccc21 (configuration not stated)
8.7

May I ask what GI50 has been recorded for COc1ccccc1/C=C/c1nc2ccccc2c(=O)[nH]1 ?
0.26

Sample COc1ccc(/C=C/c2nc3ccccc3c(=O)[nH]2)cc1 — what was its GI50?
3.8

Request the reported GI50 associated with Cc1ccc(C2NC(=O)c3ccccc3N2)cc1 (configuration not stated)
1.6

Which value of GI50 has been reported for O=C1NC(c2ccc(O)cc2)Nc2ccccc21 (configuration not stated) in the records?
3.7

---
// returns reported GI50 for input O=C1NC(c2cccc(C(F)(F)F)c2)Nc2ccccc21 (configuration not stated)
2.9

Reported GI50 for O=C1NC(c2cccc([N+](=O)[O-])c2)Nc2ccccc21 (configuration not stated) : what is it?
17

# lookup: GI50 of O=c1[nH]c(/C=C/c2cccc(O)c2)nc2ccccc12
5.9

Give the measured GI50 of O=c1[nH]c(-c2ccc(Br)cc2)nc2ccccc12 .
5.2

Find the recorded GI50 belonging to COC(=O)c1cccc(/C=C/c2nc3ccccc3c(=O)[nH]2)c1 and report it.
3.8

Which GI50 is listed for O=C1NC(/C=C/c2ccco2)Nc2ccccc21 (configuration not stated) ?
2.2

---

Tested on: NCI-H460
test-details: Antiproliferative activity against human NCI-H460 cells assessed as cell growth inhibition incubated for 72 hrs by MTT assay
Assay type: functional
quantity-measured: GI50 (µM)
Write the value in µM as a bare number.

Completed entries (count: 6):
# get_value(readout= GI50, system= NCI-H460) for COc1cccc(C2NC(=O)c3ccccc3N2)c1 (stereo not drawn)
3.3

Lab note: need GI50 with NCI-H460 for entry O=c1[nH]c(/C=C/c2ccc(Br)cc2)nc2ccccc12 , please look it up.
11

API: value(readout=GI50, system=NCI-H460) for record O=C1NC(c2ccc(O)cc2)Nc2ccccc21 (stereo not drawn)
10

Entry O=C1NC(c2cccc(C(F)(F)F)c2)Nc2ccccc21 (stereo not drawn) , system NCI-H460: what GI50 was measured?
3.2

Lab note: need GI50 for O=C1NC(c2ccccc2Br)Nc2ccccc21 (stereo not drawn) on NCI-H460, anyone have it?
3.6

Give NCI-H460 GI50 for O=C1NC(c2cccc(Br)c2)Nc2ccccc21 (stereo not drawn)
1.9

More entries:
Query for NCI-H460: what GI50 does the record show for O=C1NC(c2cccs2)Nc2ccccc21 (stereo not drawn) ?
15

# query: GI50 | item N#Cc1ccc2[nH]cc(-c3nc4ccccc4c(=O)[nH]3)c2c1 | system: NCI-H460
2.5

// map O=C1NC(/C(Br)=C/c2ccccc2)Nc2ccccc21 (stereo not drawn) to recorded GI50 (system: NCI-H460)
4.7

Query for NCI-H460: what GI50 does the record show for Cc1ccc(C2NC(=O)c3ccccc3N2)cc1 (stereo not drawn) ?
3.2

// map O=C1NC(c2cccc([N+](=O)[O-])c2)Nc2ccccc21 (stereo not drawn) to recorded GI50 (system: NCI-H460)
24

Item O=c1[nH]c(/C=C/c2ccc(O)cc2)nc2ccccc12 with NCI-H460 - GI50?
0.37

For the record O=c1[nH]c(/C=C/c2ccccc2)nc2ccccc12 , what value of GI50 is listed for NCI-H460?
2.5

I'm curious: which GI50 was measured for COc1ccccc1/C=C/c1nc2ccccc2c(=O)[nH]1 tested on NCI-H460?
0.42

Item O=C1NC(/C=C/c2ccco2)Nc2ccccc21 (stereo not drawn) with NCI-H460 - GI50?
3.3

---

test-details: Cytotoxicity against human MCF-10A cells assessed as cell growth inhibition incubated for 72 hrs by MTT assay
Type: toxicity, cell-based
quantity-measured: GI50 at 72 h (µM)
Give the value, in units of µM, as a plain number.

Examples with their reported GI50 at 72 h follow.
Please report the recorded GI50 at 72 h for O=C1NC(c2cccc3ccccc23)Nc2ccccc21 (configuration not stated) .
0.04

Give its GI50 at 72 h value. Item: O=c1[nH]c(-c2ccc(Br)cc2)nc2ccccc12
5.4

Item under review: O=c1[nH]c(/C=C/c2ccc(Br)cc2)nc2ccccc12 . Reported GI50 at 72 h?
4.6

Form field: reported GI50 at 72 h of O=C1NC(c2cccc(Br)c2)Nc2ccccc21 (configuration not stated)
3.9

What does the record list as GI50 at 72 h for CC(C)(C)c1ccc(C2NC(=O)c3ccccc3N2)cc1 (configuration not stated) ?
19

More entries:
May I ask what GI50 at 72 h has been recorded for O=C1NC(c2cccs2)Nc2ccccc21 (configuration not stated) ?
15

Consider the compound COC(=O)c1cccc(/C=C/c2nc3ccccc3c(=O)[nH]2)c1 and give its measured GI50 at 72 h.
8.5

---

In this section, each of the compounds is paired with its reported inhibition at 25 µM.
System: U-87 MG
test-details: Antiproliferative activity against human U87 cells assessed as cell growth inhibition at 25 uM incubated for 72 hrs by MTT assay relative to control
Assay type: functional, U-87MG ATCC

Suppose we examine the compound O=C1NC(c2ccccc2[N+](=O)[O-])Nc2ccccc21 (configuration not stated) ; what inhibition at 25 µM value has been reported?
16%

Continuing:
Report inhibition at 25 µM for O=C1NC(C2CCCCC2)Nc2ccccc21 (configuration not stated) please.
10%

Requested read-out: inhibition at 25 µM. Entry: O=C1NC(/C(Br)=C/c2ccccc2)Nc2ccccc21 (configuration not stated)
95%

Consider the compound shown here: COc1ccccc1/C=C/c1nc2ccccc2c(=O)[nH]1 What is its recorded inhibition at 25 µM?
> 100%

Returns the measured inhibition at 25 µM for the input compound. Input: O=C1NC(c2cccc([N+](=O)[O-])c2)Nc2ccccc21 (configuration not stated)
20%

Requested field: inhibition at 25 µM. Item: CC(C)(C)c1ccc(C2NC(=O)c3ccccc3N2)cc1 (configuration not stated)
40%

---

Consider the following compounds and their measured inhibition at 25 µM readings.
Test system: DU-145
test-details: Antiproliferative activity against human DU-145 cells assessed as cell growth inhibition at 25 uM incubated for 72 hrs by MTT assay relative to control
Type: functional
State the answer as a number, implicitly in %.

Request: inhibition at 25 µM, test system DU-145, entry Cc1ccc(/C=C/c2nc(O)c3ccccc3n2)cc1
61

Request - read-out inhibition at 25 µM | tested on DU-145 | compound O=c1[nH]c(/C=C/c2ccc(Br)cc2)nc2ccccc12
77

Checklist item: inhibition at 25 µM tested on DU-145, entry O=C1NC(/C=C/c2ccccc2[N+](=O)[O-])Nc2ccccc21 (stereo not drawn) , value?
66

Identify the measured inhibition at 25 µM of CCCCCCCCC1NC(=O)c2ccccc2N1 (stereo not drawn) for DU-145.
53

# returns recorded inhibition at 25 µM (system: DU-145) for O=C(O)c1ccc(C2NC(=O)c3ccccc3N2)cc1 (stereo not drawn)
36

Further cases:
For the record O=C1NC(c2ccccc2Br)Nc2ccccc21 (stereo not drawn) , what value of inhibition at 25 µM is listed for DU-145?
100

For DU-145, provide inhibition at 25 µM of O=c1[nH]c(-c2ccc(Br)cc2)nc2ccccc12 please.
98

Missing value: inhibition at 25 µM, DU-145, entry O=C1NC(C2CCCCC2)Nc2ccccc21 (stereo not drawn) . Fill in?
18

Hi! What's the reported inhibition at 25 µM for O=C1NC(C2CC=CCC2)Nc2ccccc21 (stereo not drawn) on DU-145?
67

Recorded values, source ChEMBL document CHEMBL5532698.
